src = paper PMC5004861

Recorded ratio to parent for the following binders
target: clathrin purified from bovine brain, P49951; test: peptide array overlay assay; details: chain shown with the change, n = 1, parent: est. 1.0, read off a plot

| Binder | ratio to parent |
| --- | --- |
| PNPFGPVSGAQAQAA [CALM iso3 C-terminus peptide 596-…-610 I607A; F609A; M610A] | 0 |
| PAKAPAAAANAKAAA [AP180 Site 2 peptide 882-…-896 D885A; L887A; D889A; L890A; I892A; D894A; F895A; L896A] | 0 |
| ADSSAANAVGNAGAG [CALM iso3 490-…-504 L490A; L494A; L497A; L501A; I503A] | 0 |
